Molecular target: REFACTO® (recombinant factor VIII-like polypeptide consisting of amino acids 1-743 and 1638 through 2332 of human factor VIII) (human) (UniProt P00451)
Sequence (P00451 20-762, chain 1 of 2): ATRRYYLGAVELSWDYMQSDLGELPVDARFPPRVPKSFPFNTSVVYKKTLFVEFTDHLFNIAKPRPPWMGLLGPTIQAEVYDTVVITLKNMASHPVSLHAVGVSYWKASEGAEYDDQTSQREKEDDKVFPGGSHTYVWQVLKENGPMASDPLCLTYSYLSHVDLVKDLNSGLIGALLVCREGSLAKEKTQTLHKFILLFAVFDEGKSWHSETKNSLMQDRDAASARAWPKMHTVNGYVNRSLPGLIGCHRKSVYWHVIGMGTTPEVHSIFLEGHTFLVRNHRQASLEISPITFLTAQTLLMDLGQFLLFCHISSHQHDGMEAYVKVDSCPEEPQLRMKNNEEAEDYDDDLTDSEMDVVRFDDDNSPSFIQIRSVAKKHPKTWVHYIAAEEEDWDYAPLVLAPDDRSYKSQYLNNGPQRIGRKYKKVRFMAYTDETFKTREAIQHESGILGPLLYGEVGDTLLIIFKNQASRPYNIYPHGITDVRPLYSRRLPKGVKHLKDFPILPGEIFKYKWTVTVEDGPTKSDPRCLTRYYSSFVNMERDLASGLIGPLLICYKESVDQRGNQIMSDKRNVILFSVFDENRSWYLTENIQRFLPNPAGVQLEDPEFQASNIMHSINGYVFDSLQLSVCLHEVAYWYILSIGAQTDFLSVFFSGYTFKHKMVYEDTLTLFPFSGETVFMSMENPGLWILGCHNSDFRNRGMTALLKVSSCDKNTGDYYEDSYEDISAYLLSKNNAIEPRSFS
Sequence (P00451 1657-2351, chain 2 of 2): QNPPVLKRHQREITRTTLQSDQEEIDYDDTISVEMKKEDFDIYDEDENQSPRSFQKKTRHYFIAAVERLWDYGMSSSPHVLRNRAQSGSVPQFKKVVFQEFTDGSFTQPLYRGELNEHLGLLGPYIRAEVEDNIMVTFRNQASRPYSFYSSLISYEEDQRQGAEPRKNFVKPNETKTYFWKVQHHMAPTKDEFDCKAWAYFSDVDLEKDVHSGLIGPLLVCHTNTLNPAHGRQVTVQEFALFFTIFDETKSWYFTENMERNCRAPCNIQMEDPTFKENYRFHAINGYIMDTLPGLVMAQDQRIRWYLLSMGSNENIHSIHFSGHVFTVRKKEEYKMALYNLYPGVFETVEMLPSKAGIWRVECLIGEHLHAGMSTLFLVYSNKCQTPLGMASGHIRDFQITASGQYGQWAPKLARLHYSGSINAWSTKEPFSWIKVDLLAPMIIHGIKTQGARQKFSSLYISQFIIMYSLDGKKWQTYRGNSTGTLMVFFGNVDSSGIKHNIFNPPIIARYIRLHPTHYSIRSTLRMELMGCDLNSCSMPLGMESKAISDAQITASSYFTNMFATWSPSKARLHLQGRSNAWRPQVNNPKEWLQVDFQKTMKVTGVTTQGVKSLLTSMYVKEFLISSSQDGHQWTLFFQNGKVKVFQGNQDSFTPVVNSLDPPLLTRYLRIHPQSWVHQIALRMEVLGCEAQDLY
Experiment: phage ELISA, with target against without target
No end group written: not given here.
observable: R (ratio of the ELISA score with target present to the ELISA score without target)

A selection of reference data follows.
FCWVFAFDHCH (not fully specified (bridges); cysteine pairing not given here) [TN9/1 isolate … (SEQ ID NO: 71)] = 24
FCWVFNFSHCS [TN9 isolate 03 (SEQ ID NO: 26)] = 24
FGCSWLFPCPF [TN7 isolate A08] = 8
RLCSWISPCSA [TN7 isolate D04] = 6

P: FCHVFNFVHCS [TN9 isolate 01 (SEQ ID NO: 31)]
Q: HPCGSWFRPCFH [TN8 isolate 02 (SEQ ID NO: 14)]
R: FCWVFPFQHCA [TN9 isolate 09 (SEQ ID NO: 29)]
Problem: Thanks in advance: please rank these 3 entries by R (ratio of the ELISA score with target present to the ELISA score without target), highest to lowest. Answer by writing out the labels in the requested order.
Result: R, Q, P
(R: 24, Q: 16, P: 8)
